Source listed as patent US9868727B2.

# measurement.target: purified Human plasma kallikrein (Homo sapiens)
# Construct: yields a heavy chain (371 amino acids) and a light chain (248 amino acids)
# Sequence (P03952 391-638 limits assumed): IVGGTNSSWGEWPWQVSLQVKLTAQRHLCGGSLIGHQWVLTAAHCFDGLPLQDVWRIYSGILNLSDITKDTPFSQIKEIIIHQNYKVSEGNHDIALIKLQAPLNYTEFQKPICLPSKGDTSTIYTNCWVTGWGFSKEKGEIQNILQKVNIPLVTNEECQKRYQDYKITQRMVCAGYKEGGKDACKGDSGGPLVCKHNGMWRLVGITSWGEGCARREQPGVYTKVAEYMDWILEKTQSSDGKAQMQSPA
# Sequence (P03952 20-390 partner limits assumed): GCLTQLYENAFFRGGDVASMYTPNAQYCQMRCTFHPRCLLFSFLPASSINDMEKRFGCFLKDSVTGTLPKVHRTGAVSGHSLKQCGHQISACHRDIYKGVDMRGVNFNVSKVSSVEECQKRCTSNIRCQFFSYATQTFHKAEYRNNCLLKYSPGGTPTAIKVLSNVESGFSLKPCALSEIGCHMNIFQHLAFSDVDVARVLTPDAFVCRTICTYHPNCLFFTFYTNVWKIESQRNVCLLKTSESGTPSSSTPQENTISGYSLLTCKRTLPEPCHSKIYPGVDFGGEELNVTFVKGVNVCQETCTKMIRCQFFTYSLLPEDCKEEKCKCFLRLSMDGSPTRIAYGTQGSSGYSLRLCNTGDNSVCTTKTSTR
# experiment: Kallikrein Assay
# cond: Plasma Kallekrein IC50; fluorogenic substrate Acetyl-K-P-R-AFC, 0.5 nM enzyme, pH 7.4; read-out: PK IC50
Returns: string. Value is Met if measured IC50 is below 200 nM, and Not met if it is greater than or equal to it.

>  <compound>
COC(=O)Nc1ccc(-c2cnc(C(CC3CC3)c3ccc(-c4cc(Cl)ccc4-n4cc(Cl)nn4)c[n+]3[O-])[nH]2)cc1 (racemic)

>  <category.label>
Not met

$$$$

INPUT: Threshold test, IC50 < 200 nM: COC(=O)Nc1ccc(-c2nc([C@H](Cc3ccccc3)c3ccc(-c4cc(Cl)ccc4-n4cnnn4)c[n+]3[O-])[nH]c2Cl)cc1
OUTPUT: Met

INPUT: Threshold test, IC50 < 200 nM: COC(=O)Nc1ccc(-c2[nH]c(C(CC3CC3)c3ccc(-c4cc(Cl)ccc4-n4cnnn4)c[n+]3[O-])nc2C)cc1 (single isomer, unassigned) [Example 77]
OUTPUT: Met

INPUT: Threshold test, IC50 < 200 nM: COC(=O)Nc1ccc(-c2nc([C@@H](Cc3ccccc3)c3ccc(-c4cc(Cl)ccc4-n4cnnn4)c[n+]3[O-])[nH]c2Cl)cc1
OUTPUT: Met

INPUT: Threshold test, IC50 < 200 nM: COC(=O)Nc1ccc(-c2cnc(C(CC3CC3)c3ccc(-c4cc(Cl)ccc4-c4csnn4)c[n+]3[O-])[nH]2)cc1 (racemic)
OUTPUT: Not met

INPUT: Threshold test, IC50 < 200 nM: COC(=O)Nc1ccc(-c2cnc(C(CC3CC3)c3ccc(-c4cc(Cl)ccc4-n4cnnn4)c[n+]3[O-])[nH]2)c(C)c1 (single isomer, unassigned) [Example 33]
OUTPUT: Not met

INPUT: Threshold test, IC50 < 200 nM: NC(=O)c1scc(-c2cnc(C(CC3CC3)c3ccc(-c4cc(Cl)ccc4-n4cnnn4)c[n+]3[O-])[nH]2)c1F (single isomer, unassigned)
OUTPUT: Met

INPUT: Threshold test, IC50 < 200 nM: COC(=O)Nc1ccc(-c2nnc(C(Cc3ccccc3)c3ccc(-c4cc(Cl)ccc4-n4cnnn4)c[n+]3[O-])o2)cc1 (racemic)
OUTPUT: Met

INPUT: Threshold test, IC50 < 200 nM: [O-][n+]1cc(-c2cc(Cl)ccc2-n2cnnn2)ccc1C(Cc1ccc(F)cc1)c1nc(-c2ccc(F)cc2)c[nH]1 (single isomer, unassigned) [Example 17]
OUTPUT: Not met

INPUT: Threshold test, IC50 < 200 nM: [O-][n+]1cc(-c2cc(Cl)ccc2-n2cnnn2)ccc1C(Cc1ccccc1)c1nc(-c2cccc(F)c2)c[nH]1 (single isomer, unassigned) [Example 3]
OUTPUT: Met

INPUT: Threshold test, IC50 < 200 nM: COC(=O)Nc1ccc(-c2cnc(C(CC3CC3)c3ccc(-c4cc(Cl)ccc4-n4cnnn4)c[n+]3[O-])[nH]2)cc1 (single isomer, unassigned) [Example 28]
OUTPUT: Met

INPUT: Threshold test, IC50 < 200 nM: O=C(O)c1ccc(-c2cnc(C(Cc3ccccc3)c3ccc(-c4cc(Cl)ccc4-n4cnnn4)c[n+]3[O-])[nH]2)cc1 (single isomer, unassigned) [Example 8]
OUTPUT: Met
